Assay: Relative quantification of urinary aPM (UPLC-QTOF-MS, creatinine-normalized) after controlled α-pinene inhalation
Type: in vivo, human
Details: share of total response of 22 aPM, averaged over post-exposure samples
Examples of molecules with documented Proportion (observed) after α-pinene inhalation follow.
Numeric only. Scale: %

Inquiry: Requested read-out: Proportion (observed) after α-pinene inhalation. Entry: CC1(C)C2CCC(C(=O)OC3OC(C(=O)O)C(O)C(O)C3O)C1C2 (single isomer, unassigned) [aPM4a, Dihydromyrtenic acid-GlcA]
Reply text: 2.4

Inquiry: Please give the result for CC1(C)C2CC1C(OC1OC(C(=O)O)C(O)C(O)C1O)C=C2C(=O)O (single isomer, unassigned) [aPM5c, Myrtenic acid-4-O-GlcA] too.
Reply text: 1.2

Now look at this one.
Inquiry: Requested read-out: Proportion (observed) after α-pinene inhalation. Entry: CC1(C)C2CC1C(OC1OC(C(=O)O)C(O)C(O)C1O)C=C2C(=O)O (single isomer, unassigned) [aPM5f, Myrtenic acid-4-O-GlcA]
Reply text: 0.5

###

Assay: aPM in mouse urine after i.p. injection of (+)-α-pinene or (−)-α-pinene
Format: in vivo, mice (C57BL/6)
Details: mouse urine collected overnight, 50 mg/kg i.p. (−)-α-pinene; 50 mg/kg
Examples of compounds with documented (1S)-(−)-α-Pinene (Average), proportion of aPM in mouse urine follow.

Inquiry: Requested read-out: (1S)-(−)-α-Pinene (Average), proportion of aPM in mouse urine. Entry: CC1(C)C2CC1C(OC1OC(C(=O)O)C(O)C(O)C1O)C=C2C(=O)O (single isomer, unassigned) [aPM5a, Myrtenic acid-4-O-GlcA]
Reply text: 0.1%

Inquiry: Please give the result for CC1(C)C2CCC(C(=O)OC3OC(C(=O)O)C(O)C(O)C3O)C1C2 (single isomer, unassigned) [aPM4b, Dihydromyrtenic acid-GlcA] too.
Reply text: 4.2%

Inquiry: Please give the result for CC1(C)C2CC=C(C(=O)OC3OC(C(=O)O)C(O)C(O)C3O)C1C2 (single isomer, unassigned) [aPM3a, Myrtenic acid-GlcA] too.
Reply text: 10.0%

Inquiry: Please give the result for CC1(C)C2CC1C(OC1OC(C(=O)O)C(O)C(O)C1O)C=C2C(=O)O (single isomer, unassigned) [aPM5f, Myrtenic acid-4-O-GlcA] too.
Reply text: 0.0%

Inquiry: Please give the result for CC1(C)C2CC1C(OC1OC(C(=O)O)C(O)C(O)C1O)C=C2C(=O)O (single isomer, unassigned) [aPM5c, Myrtenic acid-4-O-GlcA] too.
Reply text: 0.0%

Next:
Inquiry: Requested read-out: (1S)-(−)-α-Pinene (Average), proportion of aPM in mouse urine. Entry: CC1(C)C2CC1C(OC1OC(C(=O)O)C(O)C(O)C1O)C=C2C(=O)O (single isomer, unassigned) [aPM5d, Myrtenic acid-4-O-GlcA]
Reply text: 0.0%

Inquiry: Please give the result for CC1(C)C2CC1C(OC1OC(C(=O)O)C(O)C(O)C1O)C=C2C(=O)O (single isomer, unassigned) [aPM5g, Myrtenic acid-4-O-GlcA] too.
Reply text: 0.0%

Inquiry: Please give the result for CC1(C)C2CCC(C(=O)OC3OC(C(=O)O)C(O)C(O)C3O)C1C2 (single isomer, unassigned) [aPM4c, Dihydromyrtenic acid-GlcA] too.
Reply text: 0.1%

Inquiry: Please give the result for CC1(C)C2CCC(C(=O)OC3OC(C(=O)O)C(O)C(O)C3O)C1C2 (single isomer, unassigned) [aPM4d, Dihydromyrtenic acid-GlcA] too.
Reply text: 0.2%

Inquiry: Please give the result for CC1(C)C2CCC(C(=O)OC3OC(C(=O)O)C(O)C(O)C3O)C1C2 (single isomer, unassigned) [aPM4e, Dihydromyrtenic acid-GlcA] too.
Reply text: 0.2%

Inquiry: Please give the result for CC1(C)C2CC1C(OC1OC(C(=O)O)C(O)C(O)C1O)C=C2C(=O)O (single isomer, unassigned) [aPM5b, Myrtenic acid-4-O-GlcA] too.
Reply text: 0.0%

Inquiry: Please give the result for CC1(C)C2CC=C(C(=O)OC3OC(C(=O)O)C(O)C(O)C3O)C1C2 (single isomer, unassigned) [aPM3b, Myrtenic acid-GlcA] too.
Reply text: 2.7%

Inquiry: Please give the result for CC1(C)C2CCC(C(=O)OC3OC(C(=O)O)C(O)C(O)C3O)C1C2 (single isomer, unassigned) [aPM4a, Dihydromyrtenic acid-GlcA] too.
Reply text: 5.0%

Inquiry: Please give the result for CC1(C)C2CC1C(OC1OC(C(=O)O)C(O)C(O)C1O)C=C2C(=O)O (single isomer, unassigned) [aPM5e, Myrtenic acid-4-O-GlcA] too.
Reply text: 0.3%
